As shown below, each of these sequences has a reported recombinant UMI read abundance (log10) value.
TEST_SUMMARY: recombinant UMI read abundance after kanamycin selection (control-corrected) (log10(CPM+1)); higher = more efficient recombination; extreme values may be limits of the assay; sequences stand for … in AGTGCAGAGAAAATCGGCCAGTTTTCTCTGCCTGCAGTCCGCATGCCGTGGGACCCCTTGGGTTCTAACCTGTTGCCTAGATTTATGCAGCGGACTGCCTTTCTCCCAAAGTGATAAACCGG…AGGTTGGTTTCACT; site = the 11-nt donor

IN: Supply measured recombinant UMI read abundance (log10) of CACAGTGCATGGACCGGTTTTCCCGGTAATCCGTATTTGAT (site CACAGTGCTAT) in your reply.
OUT: 2.52

IN: Supply measured recombinant UMI read abundance (log10) of CCGTCATCATGGACCGGTTTTCCCGGTAATCCGTATTTGAT (site CCGTCATCTAT) in your reply.
OUT: 0.00671

IN: Supply measured recombinant UMI read abundance (log10) of ATGCGAGCATGGACCGGTTTTCCCGGTAATCCGTATTTGCT (site ATGCGAGCTAG) in your reply.
OUT: 2.5

IN: Supply measured recombinant UMI read abundance (log10) of TCCCGCTCATGGACCGGTTTTCCCGGTAATCCGTATTTGCC (site TCCCGCTCTGG) in your reply.
OUT: 0

----------
TEST_SUMMARY: recombinant UMI read abundance after kanamycin selection (control-corrected) (log10(CPM+1)); higher = more efficient recombination; extreme values may be limits of the assay; sequences stand for … in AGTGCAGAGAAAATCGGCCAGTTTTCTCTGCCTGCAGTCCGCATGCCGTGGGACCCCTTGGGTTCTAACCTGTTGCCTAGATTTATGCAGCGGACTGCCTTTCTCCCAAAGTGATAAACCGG…AGGTTGGTTTCACT; site = the 11-nt donor
Label Y for high-side recombinant UMI read abundance (log10) (at or above 0.005) and N for low-side recombinant UMI read abundance (log10) (below it).

IN: Check if recombinant UMI read abundance (log10) >= 0.005 (inclusive). Item: TTGCATACATGGACCGGTTTTCCCGGTAATCCGTATTTGGA (site TTGCATACTTC)
OUT: Y

IN: Check if recombinant UMI read abundance (log10) >= 0.005 (inclusive). Item: GGTATGCCATGGACCGGTTTTCCCGGTAATCCGTATTTGAC (site GGTATGCCTGT)
OUT: N

----------
TEST_SUMMARY: recombinant barcode read abundance after kanamycin selection (control-corrected) (log10(CPM+1)); higher = more efficient recombination; sequences stand for … in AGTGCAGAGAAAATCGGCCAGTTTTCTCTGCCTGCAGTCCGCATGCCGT…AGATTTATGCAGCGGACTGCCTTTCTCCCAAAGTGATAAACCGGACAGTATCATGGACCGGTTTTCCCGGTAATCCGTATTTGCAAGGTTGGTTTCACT; site = the 11-nt target
Label Met for high-side recombinant barcode read abundance (log10) (at or above 0.2) and Not met for low-side recombinant barcode read abundance (log10) (below it).

Worked examples follow.
INSERT INTO measurements (residues, category) VALUES
  ('GGATATCCTTGGGTTCTAACCTGTTGCCT (site GGATATCCTAG)', 'Met'),
  ('TTCCACACTTGGGTTCTAACCTGTTGCGG (site TTCCACACTCC)', 'Met'),
  ('TCCTAAGCTTGGGTTCTAACCTGTTGCTA (site TCCTAAGCTTA)', 'Not met'),
  ('AACAAGCCTTGGGTTCTAACCTGTTGCTG (site AACATGCCTAA)', 'Not met'),
  ('TTAGCTTCTTGGGTTCTAACCTGTTGCCT (site TTAGCGTCTAG)', 'Not met'),
  ('ATATTGCCTTGGGTTCTAACCTGTTGCCT (site ATATTGTCTTG)', 'Not met');

IN: Check if recombinant barcode read abundance (log10) >= 0.2 (inclusive). Item: CTTCGTCCTTGGGTTCTAACCTGTTGCAT (site CTTCGTCCTAC)
OUT: Not met

IN: Check if recombinant barcode read abundance (log10) >= 0.2 (inclusive). Item: ACATAGACTTGGGTTCTAACCTGTTGCGC (site ACAAAGACTGC)
OUT: Not met

Where do the numbers come from? From the supplement of paper PMC11208160.
